measurement-target: T1, Rabbit
T1 construct: also called rabbit EphA4 extracellular domain-SEAP-His protein
test-method-notes: ELISA
reported-property: absorbance
Simply state the number, no unit and no words.

Input KPEP11_04 (antibody, V domains shown, Rabbit IgG/kappa; Used HRP-labeled as detection antibody in the sandwich ELISAs; also called anti-human EphA4 rabbit monoclonal antibody KPEP11_04; HRP-labeled KPEP11_04) VH: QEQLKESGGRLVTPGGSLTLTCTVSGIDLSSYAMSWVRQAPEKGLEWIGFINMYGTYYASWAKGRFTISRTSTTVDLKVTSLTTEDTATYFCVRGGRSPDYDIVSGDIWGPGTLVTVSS VL: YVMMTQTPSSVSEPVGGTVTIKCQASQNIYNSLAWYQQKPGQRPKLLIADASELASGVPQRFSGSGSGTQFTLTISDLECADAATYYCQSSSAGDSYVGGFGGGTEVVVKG , output reported absorbance.
0.039

Hello, the source for this data is patent US20240385190A1, in case you need it.
